Values from ChEMBL document CHEMBL3875141

# Tested on: Human immunodeficiency virus 1
# assay_method_text: Antiviral activity against HIV-1 NL4-3 harboring RT-K103N/V108I double mutant infected in HEK293T cells coexpressing vesicular stomatitis virus glycoprotein pretreated with cells for 15 mins followed by viral infection measured after 48 hrs by luciferase reporter gene assay
# Type: functional, cell-based
# cond: hek-293t
Decide using IC50 alone. Strictly below 3000 nM: Fulfilled. Equal to or above 3000 nM: Not fulfilled.

Study these solved cases before continuing.
- test_smiles: "Fc1cc(F)cc(Cc2sc(NCc3ccc4c(c3)CCO4)nc2-c2ccccc2Cl)c1"
  class_name: "Fulfilled"
- test_smiles: "Fc1cc(F)cc(Cc2sc(NCc3ccc4c(c3)CCO4)nc2-c2ccc(F)cc2F)c1"
  class_name: "Not fulfilled"
- test_smiles: "Fc1cc(F)cc(Cc2sc(NCc3ccc4c(c3)CCO4)nc2-c2ccccc2)c1"
  class_name: "Not fulfilled"
- test_smiles: "COc1ccccc1Cc1sc(NCc2ccc3c(c2)CCO3)nc1-c1ccccc1"
  class_name: "Fulfilled"

Switching to the query record.
Prompt line: State whether 3000 nM exceeds IC50 recorded for `COc1ccccc1Cc1sc(NCc2ccc3c(c2)CCO3)nc1-c1ccc(F)cc1F` .
Response line: Fulfilled

* * *

// IC50 lookup, one value per entry
# Tested on: Human immunodeficiency virus 1
# assay_method_text: Antiviral activity against HIV-1 NL4-3 harboring RT-K103N/Y188L double mutant infected in HEK293T cells coexpressing vesicular stomatitis virus glycoprotein pretreated with cells for 15 mins followed by viral infection measured after 48 hrs by luciferase reporter gene assay
# Assay type: functional, cell-based
# cond: hek-293t

Prompt line: # value lookup — system Human immunodeficiency virus 1, readout IC50, item `Cc1ccnc2c1NC(=O)c1cccnc1N2C1CC1`
Response line: > 10 µM

Prompt line: # value lookup — system Human immunodeficiency virus 1, readout IC50, item `COc1ccccc1Cc1sc(NCc2ccc3c(c2)CCO3)nc1-c1ccccc1`
Response line: > 10 µM

Prompt line: # value lookup — system Human immunodeficiency virus 1, readout IC50, item `COc1ccccc1Cc1sc(NCc2ccc3c(c2)CCO3)nc1-c1ccc(F)cc1F`
Response line: > 10 µM

Prompt line: # value lookup — system Human immunodeficiency virus 1, readout IC50, item `Clc1cccc(Cl)c1Cc1sc(NCc2ccc3c(c2)CCO3)nc1-c1ccccc1`
Response line: > 10 µM

Prompt line: # value lookup — system Human immunodeficiency virus 1, readout IC50, item `O=C1Nc2ccc(Cl)cc2[C@@](C#CC2CC2)(C(F)(F)F)O1`
Response line: 13.8 µM

Prompt line: # value lookup — system Human immunodeficiency virus 1, readout IC50, item `Fc1cc(F)cc(Cc2sc(NCc3ccc4c(c3)CCO4)nc2-c2ccccc2)c1`
Response line: > 10 µM

* * *

# Tested on: Human immunodeficiency virus 1
# assay_method_text: Ratio of IC50 for HIV-1 NL4-3 harboring RT-K103N/V108I double mutant infected in HEK293T cells co-expressing vesicular stomatitis virus glycoprotein to IC50 for wild-type HIV-1 NL4-3 infected in HEK293T cells co-expressing vesicular stomatitis virus glycoprotein
# Assay type: functional, HEK-293T
Assign Satisfied whenever Ratio IC50 does not fall below 90; assign Not satisfied whenever it does.

Prompt line: Determine whether this molecule has Ratio IC50 no lower than 90: `Fc1cc(F)cc(Cc2sc(NCc3ccc4c(c3)CCO4)nc2-c2ccccc2)c1`
Response line: Satisfied

Prompt line: Determine whether this molecule has Ratio IC50 no lower than 90: `Fc1cc(F)cc(Cc2sc(NCc3ccc4c(c3)CCO4)nc2-c2ccc(F)cc2F)c1`
Response line: Satisfied

Prompt line: Determine whether this molecule has Ratio IC50 no lower than 90: `COc1ccccc1Cc1sc(NCc2ccc3c(c2)CCO3)nc1-c1ccccc1`
Response line: Not satisfied

Prompt line: Determine whether this molecule has Ratio IC50 no lower than 90: `Clc1cccc(Cl)c1Cc1sc(NCc2ccc3c(c2)CCO3)nc1-c1ccccc1`
Response line: Not satisfied

Prompt line: Determine whether this molecule has Ratio IC50 no lower than 90: `Fc1cc(F)cc(Cc2sc(NCc3ccc4c(c3)CCO4)nc2-c2ccccc2Cl)c1`
Response line: Not satisfied

Prompt line: Determine whether this molecule has Ratio IC50 no lower than 90: `COc1ccccc1Cc1sc(NCc2ccc3c(c2)CCO3)nc1-c1ccc(F)cc1F`
Response line: Not satisfied
